- Target: HLA-B*08:01 (human)
- Run Description: REVEAL MHC-peptide binding assay, recombinant HLA-B*08:01
- Assay Setup: remark: other sources report otherwise
Simple rule here: In Vitro Score (% of positive control peptide) less than 0.2 is Yes, otherwise No.

- Binder: "IIFWVQRGR [… (SEQ ID NO: 53)]"
  Category: "Yes"
- Binder: "IIFWVKRGA [… (SEQ ID NO: 69)]"
  Category: "No"
- Binder: "WVKRGHKKL [… (SEQ ID NO: 68)]"
  Category: "No"
- Binder: "IIFWVARGR [… (SEQ ID NO: 46)]"
  Category: "No"
- Binder: "IFWVHRGRK [… (SEQ ID NO: 41)]"
  Category: "Yes"
- Binder: "VAFIIFWVK [… (SEQ ID NO: 16)]"
  Category: "No"

Report whether reported In Vitro Score (% of positive control peptide) is lower than 0.2 (strictly) for IFWVQRGNK [… (SEQ ID NO: 86)]
Yes

Find out if reported In Vitro Score (% of positive control peptide) for WVQRGRKKL [… (SEQ ID NO: 56)] is less than 0.2
No

Consider the binder IFWVKRGHK [… (SEQ ID NO: 66)] . Is its In Vitro Score (% of positive control peptide) strictly less than 0.2?
No

Is it true that In Vitro Score (% of positive control peptide) reported for IFWVKRGNK [… (SEQ ID NO: 74)] is less than 0.2?
Yes

In Vitro Score (% of positive control peptide) strictly < 0.2 for this binder? IIFWVKRGN [… (SEQ ID NO: 73)]
No

Take the binder IFWVARGRK [… (SEQ ID NO: 47)] and say whether its In Vitro Score (% of positive control peptide) is less than 0.2.
Yes

Dear reviewer, please state whether IFWVKRGSK [… (SEQ ID NO: 58)] has In Vitro Score (% of positive control peptide) strictly beneath 0.2.
No

The measurements presented in this section are drawn from patent US20180355014A1.
